# METHOD SUMMARY: Murine plasma protein binding
# Assay type: in vitro ADME, mouse
# CONDITION SET: mouse; murine plasma; read-out: Murine plasma protein binding: Percentage unbound
MEASUREMENT LABEL: fraction unbound at 4 h
Answers are plain numbers.

Data request, read-out fraction unbound at 4 h, for "Cc1nc(Nc2ncc(C(=O)Nc3c(CF)csc3Cl)s2)cc(N2CCN(C)CC2)n1"
0.01

---

# METHOD SUMMARY: Full pharmacokinetic study with oral administration in mice
# Type: in vivo
# CONDITION SET: mouse; mice, 30 mg/kg po, Free plasma concentration; read-out: Cmax
MEASUREMENT LABEL: Cmax
Kindly report the value followed by its unit.

Param item = "Cc1nc(Nc2ncc(C(=O)Nc3c(CF)csc3Cl)s2)cc(N2CCN(C)CC2)n1" ; retrieve measured Cmax.
66.9 ng/mL
